log10 IC50 by entry:
- Test system: Phospho-Rb Ser807/811 in OVCAR3 cells
- procedureDetails: OVCAR3 Phospho-Rb Ser807/811 HTRF assay
- Assay type: cell-based
- conditionsUsed: Homo sapiens, OVCAR-3, 1 h, OVCAR3 cells, Phospho-Rb Ser807/811 HTRF, 1 hour incubation; read-out: pRb-OVCAR3 IC50
A difference of one corresponds to tenfold IC50; all values are log10 with IC50 in nM.

compound | log10 IC50
CCCNC(=O)O[C@H]1C[C@@H](c2cc(NC(=O)COc3cc(OC)cc(OC)c3C=O)n[nH]2)C1 | 1.44
CC(C)NC(=O)O[C@@H]1CC[C@H](c2cc(NC(=O)[C@@H]3Cc4ccc(O)c(C=O)c4C3)n[nH]2)C1 [Compound 256] | 1.84
COc1cc(O)c(C=O)c(OCC(=O)Nc2cc([C@H]3CC[C@@H](OC(=O)N4[C@@H]5CC[C@H]4C[C@H](C#N)C5)C3)[nH]n2)c1 | 1.44
COc1cc(O)c(C=O)c(OCC(=O)Nc2cc([C@H]3CC[C@@H](OC(=O)N4C[C@@H]5CC[C@H]4C5)C3)[nH]n2)c1 | 1.35
COc1cc(O)c(C=O)c(OCC(=O)Nc2cc([C@H]3CC[C@@H](OC(=O)N4C[C@H]5C[C@@H]4CO5)C3)[nH]n2)c1 | 1.78

# log10 IC50 (compound: CC(C)NC(=O)O[C@@H]1CC[C@H](c2cc(NC(=O)Cc3ncc(-c4cccc(O)c4C=O)s3)n[nH]2)C1 ) is 3.23

# log10 IC50 (compound: COCc1cc(O)c(C=O)c(-c2cc(C(=O)Nc3cc([C@H]4CC[C@@H](OC(=O)NC(C)C)C4)[nH]n3)n(C)n2)c1 ) is 1.93

# log10 IC50 (compound: COc1cc(O)c(C=O)c2c1CC(C(=O)Nc1cc([C@H]3C[C@@H](OC(=O)NC(C)C)C3)[nH]n1)C2 (single isomer, unassigned) ) is 1.31

# log10 IC50 (compound: CCC[C@H](C)NC(=O)O[C@@H]1CC[C@H](c2cc(NC(=O)COc3cc(OC)cc(O)c3C=O)n[nH]2)C1 ) is 1.47

# log10 IC50 (compound: COc1cc(O)c(C=O)c(CCC(=O)Nc2cc([C@H]3CC[C@@H](OC(=O)NC(C)C)C3)[nH]n2)c1 [Compound 22, 2,2,2-trifluoroacetate] ) is 2.30

# log10 IC50 (compound: COc1cc(O)c(C=O)c(OCC(=O)Nc2cc([C@H]3CC[C@@H](OC(=O)N4C5CCC(C5)N4C)C3)[nH]n2)c1 (stereo partly shown) ) is 1.59

# log10 IC50 (compound: CCN(C)NC(=O)O[C@@H]1CC[C@H](c2cc(NC(=O)COc3cc(OC)cc(O)c3C=O)n[nH]2)C1 ) is 1.74

# log10 IC50 (compound: CC(C)NC(=O)O[C@@H]1CC[C@H](c2cc(NC(=O)COc3cc(-n4cccn4)cc(O)c3C=O)n[nH]2)C1 ) is 3.40

====

- assayedSystem: CDK4-NanoLuc fusion with CCND1 in 293T or 293 cells (Homo sapiens, UniProt P11802)
- Construct: host or cells: 293T (ATCC CRL-3216) or 293 (ATCC CRL-1573)
- Sequence (P11802 whole entry, the tested form may be a part): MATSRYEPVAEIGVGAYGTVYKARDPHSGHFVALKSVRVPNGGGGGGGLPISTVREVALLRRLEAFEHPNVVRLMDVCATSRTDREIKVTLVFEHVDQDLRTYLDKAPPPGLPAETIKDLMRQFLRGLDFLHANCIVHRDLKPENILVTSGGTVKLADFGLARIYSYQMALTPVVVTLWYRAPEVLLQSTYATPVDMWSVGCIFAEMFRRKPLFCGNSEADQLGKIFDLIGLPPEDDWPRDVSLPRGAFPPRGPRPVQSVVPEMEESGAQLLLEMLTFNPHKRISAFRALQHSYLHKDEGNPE
- Sequence (P24385 whole entry partner, the tested form may be a part): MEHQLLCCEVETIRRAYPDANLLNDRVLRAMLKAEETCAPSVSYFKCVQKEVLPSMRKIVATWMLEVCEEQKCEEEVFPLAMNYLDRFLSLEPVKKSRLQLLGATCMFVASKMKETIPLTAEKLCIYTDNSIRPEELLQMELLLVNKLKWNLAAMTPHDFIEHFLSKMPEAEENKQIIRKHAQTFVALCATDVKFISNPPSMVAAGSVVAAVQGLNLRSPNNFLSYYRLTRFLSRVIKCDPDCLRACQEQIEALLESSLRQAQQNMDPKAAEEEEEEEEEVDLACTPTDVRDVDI
- procedureDetails: NanoBRET Target Engagement (TE) Intracellular Kinase Assay, CDK4/CCND1
- Type: cell-based
- conditionsUsed: NanoBRET TE intracellular kinase assay, 2-hour incubation, read-out: NanoBRET-CDK4/D1 IC50
Could you mark each record 1 if its IC50 falls strictly under 4 µM, and -1 if it equals or exceeds it?

Field: example entries. Status: answers known.
compound | class
COc1cc(O)c(C=O)c(OCC(=O)Nc2cc([C@H]3CC[C@@H](OC(=O)N4CC[C@@H]5C[C@@H]54)C3)[nH]n2)c1 | -1
CCN(CC)N(C)C(=O)O[C@@H]1CC[C@H](c2cc(NC(=O)COc3cc(OC)cc(O)c3C=O)n[nH]2)C1 | -1
CC(C)NC(=O)O[C@@H]1CC[C@H](c2cc(NC(=O)COc3cccc(-c4nccs4)c3C=O)n[nH]2)C1 | -1

Q: Answer whether the compound C#CCNC(=O)O[C@@H]1CC[C@H](c2cc(NC(=O)COc3cc(OC)cc(O)c3C=O)n[nH]2)C1 has IC50 strictly less than 4 µM
Result: -1

Q: Answer whether the compound CC(C)NC(=O)O[C@@H]1CC[C@H](c2cc(NC(=O)CCc3ccc(O)c(C=O)c3)n[nH]2)C1 has IC50 strictly less than 4 µM
Result: 1

Q: Answer whether the compound CC(C)NC(=O)O[C@@H]1CC[C@H](c2cc(NC(=O)c3cc(COc4cccc(O)c4C=O)nn3C)n[nH]2)C1 has IC50 strictly less than 4 µM
Result: 1

Q: Answer whether the compound COc1cc(O)c(C=O)c(OCC(=O)Nc2cc([C@@H]3CCC(OC(=O)N4CCCC4)C3)[nH]n2)c1 (some centres unmarked) has IC50 strictly less than 4 µM
Result: 1

Q: Answer whether the compound COc1cc(O)c(C=O)c(OCC(=O)Nc2cc([C@H]3CC[C@@H](OC(=O)N4CC[C@H]4C#N)C3)[nH]n2)c1 (stereo in doubt) has IC50 strictly less than 4 µM
Result: -1

Q: Answer whether the compound CCCNC(=O)O[C@@H]1CC[C@H](c2cc(NC(=O)COc3cccc(O)c3C=O)n[nH]2)C1 has IC50 strictly less than 4 µM
Result: -1

Q: Answer whether the compound COc1cc(O)c(C=O)c2c1CC(C(=O)Nc1cc([C@H]3CC[C@@H](OC(=O)NN(C)C)C3)n[nH]1)C2 (single isomer, unassigned) [Compound 268] has IC50 strictly less than 4 µM
Result: -1

Q: Answer whether the compound CC(C)c1ccc(O[C@@H]2CC[C@H](c3cc(NC(=O)CCc4cccc(O)c4C=O)n[nH]3)C2)nn1 has IC50 strictly less than 4 µM
Result: 1

Q: Answer whether the compound COc1cc(O)c(C=O)c(OCC(=O)Nc2cc([C@H]3CC[C@@H](OC(=O)NC[C@@H](C)OC)C3)[nH]n2)c1 has IC50 strictly less than 4 µM
Result: -1

Q: Answer whether the compound COc1cc(O)c(C=O)c2c1CC(C(=O)Nc1cc([C@H]3CC[C@@H](OC(=O)N4CCCCN4C)C3)[nH]n1)C2 (single isomer, unassigned) [Compound 267] has IC50 strictly less than 4 µM
Result: 1

Q: Answer whether the compound O=Cc1c(O)cccc1OCC(=O)Nc1cc([C@H]2CC[C@@H](OC(=O)NC3CC3)C2)[nH]n1 has IC50 strictly less than 4 µM
Result: -1

Q: Answer whether the compound CCOc1cc(O)c(C=O)c(OCC(=O)Nc2cc([C@H]3CC[C@@H](OC(=O)N4CCC4(C)C)C3)[nH]n2)c1 has IC50 strictly less than 4 µM
Result: 1

Q: Answer whether the compound COc1cc(O)c(C=O)c(OCC(=O)Nc2cc([C@H]3CC[C@@H](OC(=O)N4C[C@H](F)[C@@H]4C)C3)[nH]n2)c1 has IC50 strictly less than 4 µM
Result: 1

Q: Answer whether the compound COc1cc(O)c(C=O)c(OCC(=O)Nc2cc([C@H]3CC[C@@H](OC(=O)N[C@@H](C)C(F)F)C3)[nH]n2)c1 has IC50 strictly less than 4 µM
Result: 1

Q: Answer whether the compound CC(C)NC(=O)O[C@@H]1CC[C@H](c2cc(NC(=O)c3cc(Oc4cccc(O)c4C=O)nn3C)n[nH]2)C1 has IC50 strictly less than 4 µM
Result: 1

Q: Answer whether the compound CC(C)NC(=O)O[C@@H]1CC[C@H](c2cc(NC(=O)CCCc3cccc(O)c3C=O)n[nH]2)C1 has IC50 strictly less than 4 µM
Result: 1

Q: Answer whether the compound COCC1(NC(=O)O[C@@H]2CC[C@H](c3cc(NC(=O)COc4cc(OC)cc(O)c4C=O)n[nH]3)C2)CCC1 (stereo in doubt) has IC50 strictly less than 4 µM
Result: 1

Q: Answer whether the compound COc1cc(O)c(C=O)c(OCC(=O)Nc2cc([C@H]3CC[C@@H](OC(=O)N4CCOCC4)C3)[nH]n2)c1 has IC50 strictly less than 4 µM
Result: -1

Q: Answer whether the compound O=Cc1c(O)cc(F)cc1OCC(=O)Nc1cc([C@H]2CC[C@@H](OC(=O)N3C4COCC3C4)C2)[nH]n1 has IC50 strictly less than 4 µM
Result: -1

Q: Answer whether the compound CC(C)NC(=O)O[C@@H]1CC[C@H](c2cc(NC(=O)COc3cccc(Cl)c3C=O)n[nH]2)C1 has IC50 strictly less than 4 µM
Result: -1

Q: Answer whether the compound CC[C@H](C)NC(=O)O[C@@H]1CC[C@H](c2cc(NC(=O)COc3cc(OC)cc(O)c3C=O)n[nH]2)C1 has IC50 strictly less than 4 µM
Result: 1

Q: Answer whether the compound CC(C)NC(=O)O[C@@H]1CC[C@H](c2cc(NC(=O)CCOc3cccc(O)c3C=O)n[nH]2)C1 has IC50 strictly less than 4 µM
Result: 1

Cited source for all entries: patent US20250289789A1
